Source of measurements: paper PMC5564600

- Study Target: panel of 442 kinases (Homo sapiens)
- Construct: purchased Ambit Biosciences (scanMAXX KINOMEscan)
- Test: biochemical
- Assay type: binding
- Conditions Used: CDC2L5; 1 µM; read-out: % of control at 1 µM
remaining activity at 1 µM values by entry

Consider the reported remaining activity at 1 µM for these compounds:
| Compound | remaining activity at 1 µM |
| --- | --- |
| Cn1c(=O)n(-c2ccc(C(C)(C)C#N)cc2)c2c3cc(-c4cnc5ccccc5c4)ccc3ncc21 [Dactolisib] | 87% |
| COc1ncc(-c2ccc3nccc(-c4ccnnc4)c3c2)cc1NS(=O)(=O)c1ccc(F)cc1F [Omipalisib] | 100% |
| Nc1cc(C(F)(F)F)c(-c2cc(N3CCOCC3)nc(N3CCOCC3)n2)cn1 [Buparlisib] | 75% |

Incoming: Would you kindly share the measured remaining activity at 1 µM for CS(=O)(=O)N1CCN(Cc2cc3nc(-c4cccc5[nH]ncc45)nc(N4CCOCC4)c3s2)CC1 [Pictilisib] ?
Outgoing: 70%

###

- Study Target: panel of 442 kinases (Homo sapiens, UniProt P07949)
- Construct: purchased Ambit Biosciences (scanMAXX KINOMEscan)
- Sequence (P07949 29-1114): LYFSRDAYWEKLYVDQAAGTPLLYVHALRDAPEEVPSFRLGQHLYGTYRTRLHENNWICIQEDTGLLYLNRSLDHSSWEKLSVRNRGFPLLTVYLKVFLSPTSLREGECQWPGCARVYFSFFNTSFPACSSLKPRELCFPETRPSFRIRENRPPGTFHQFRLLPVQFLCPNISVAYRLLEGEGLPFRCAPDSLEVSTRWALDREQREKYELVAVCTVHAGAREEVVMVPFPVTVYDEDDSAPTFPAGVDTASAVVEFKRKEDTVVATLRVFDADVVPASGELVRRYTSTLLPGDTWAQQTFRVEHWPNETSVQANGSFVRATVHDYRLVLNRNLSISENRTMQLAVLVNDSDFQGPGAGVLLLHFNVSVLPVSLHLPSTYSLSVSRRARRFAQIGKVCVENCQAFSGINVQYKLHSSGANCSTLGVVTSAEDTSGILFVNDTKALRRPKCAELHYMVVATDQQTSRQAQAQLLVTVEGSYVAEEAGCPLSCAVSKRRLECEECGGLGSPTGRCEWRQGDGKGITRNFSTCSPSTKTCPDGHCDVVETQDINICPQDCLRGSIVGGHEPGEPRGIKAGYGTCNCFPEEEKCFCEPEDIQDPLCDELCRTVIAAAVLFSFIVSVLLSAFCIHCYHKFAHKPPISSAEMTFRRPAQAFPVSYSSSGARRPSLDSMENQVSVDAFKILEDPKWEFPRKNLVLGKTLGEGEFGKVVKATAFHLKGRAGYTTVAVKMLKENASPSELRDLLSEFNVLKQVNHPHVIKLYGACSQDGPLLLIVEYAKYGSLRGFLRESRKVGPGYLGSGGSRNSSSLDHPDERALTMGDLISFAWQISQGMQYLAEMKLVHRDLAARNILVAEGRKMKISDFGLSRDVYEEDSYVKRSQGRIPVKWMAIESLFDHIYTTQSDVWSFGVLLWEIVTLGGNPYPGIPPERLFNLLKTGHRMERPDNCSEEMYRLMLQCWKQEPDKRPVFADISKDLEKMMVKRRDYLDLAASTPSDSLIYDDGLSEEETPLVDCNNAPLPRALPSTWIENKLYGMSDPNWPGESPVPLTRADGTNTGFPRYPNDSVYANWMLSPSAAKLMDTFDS
- Test: biochemical
- Assay type: binding
- Conditions Used: kinase RET; 1 µM; read-out: RET (% of control at 1 µM)
Quick list: remaining activity at 1 µM per entry.
Give the number; % is assumed, so skip it.

Examples with answers:
| Compound Smiles | Study Target | Measured Endpoint | Unit Annotation | Observed Result |
| --- | --- | --- | --- | --- |
| Cn1c(=O)n(-c2ccc(C(C)(C)C#N)cc2)c2c3cc(-c4cnc5ccccc5c4)ccc3ncc21 | panel of 442 kinases (Homo sapiens, UniProt P07949) | remaining activity at 1 µM | % | 100 |
| FC(F)c1nc2ccccc2n1-c1nc(N2CCOCC2)nc(N2CCOCC2)n1 | panel of 442 kinases (Homo sapiens, UniProt P07949) | remaining activity at 1 µM | % | 100 |
| Nc1cc(C(F)(F)F)c(-c2cc(N3CCOCC3)nc(N3CCOCC3)n2)cn1 | panel of 442 kinases (Homo sapiens, UniProt P07949) | remaining activity at 1 µM | % | 97 |

Shifting focus to the compound that follows.
Incoming: Enter reported remaining activity at 1 µM observed with panel of 442 kinases (Homo sapiens, UniProt P07949) for COc1ncc(-c2ccc3nccc(-c4ccnnc4)c3c2)cc1NS(=O)(=O)c1ccc(F)cc1F
Outgoing: 94

###

- Study Target: PI3Kδ (Homo sapiens, UniProt O00329)
- Sequence (O00329 whole entry): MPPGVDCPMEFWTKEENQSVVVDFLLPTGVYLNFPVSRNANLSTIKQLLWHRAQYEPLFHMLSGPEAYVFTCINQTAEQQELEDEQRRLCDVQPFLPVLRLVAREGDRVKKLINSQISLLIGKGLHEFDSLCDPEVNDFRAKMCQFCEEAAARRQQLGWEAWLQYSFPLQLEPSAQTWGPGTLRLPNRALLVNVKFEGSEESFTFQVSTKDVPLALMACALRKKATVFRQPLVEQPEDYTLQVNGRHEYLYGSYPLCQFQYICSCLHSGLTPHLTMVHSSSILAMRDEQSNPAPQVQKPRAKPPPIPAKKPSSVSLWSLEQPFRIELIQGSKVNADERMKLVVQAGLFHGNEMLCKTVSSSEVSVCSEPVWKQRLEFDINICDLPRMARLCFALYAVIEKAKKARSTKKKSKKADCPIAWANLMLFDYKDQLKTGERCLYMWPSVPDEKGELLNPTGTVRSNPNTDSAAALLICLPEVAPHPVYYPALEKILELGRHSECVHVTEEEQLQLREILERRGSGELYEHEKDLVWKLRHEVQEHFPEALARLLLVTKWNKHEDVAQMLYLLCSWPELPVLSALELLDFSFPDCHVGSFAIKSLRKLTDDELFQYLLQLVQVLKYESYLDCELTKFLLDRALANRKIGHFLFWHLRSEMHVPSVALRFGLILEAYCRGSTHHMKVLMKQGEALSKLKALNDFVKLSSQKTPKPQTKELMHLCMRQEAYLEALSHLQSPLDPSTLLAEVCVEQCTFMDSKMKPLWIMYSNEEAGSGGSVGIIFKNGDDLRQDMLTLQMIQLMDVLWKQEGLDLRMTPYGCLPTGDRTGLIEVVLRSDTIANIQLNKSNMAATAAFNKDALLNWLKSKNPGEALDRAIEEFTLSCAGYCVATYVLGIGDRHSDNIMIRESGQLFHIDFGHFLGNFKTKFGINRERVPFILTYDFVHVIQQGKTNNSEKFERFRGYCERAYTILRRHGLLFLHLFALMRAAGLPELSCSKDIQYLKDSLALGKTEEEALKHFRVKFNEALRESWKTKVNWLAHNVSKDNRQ
- Sequence (P27986 whole entry partner): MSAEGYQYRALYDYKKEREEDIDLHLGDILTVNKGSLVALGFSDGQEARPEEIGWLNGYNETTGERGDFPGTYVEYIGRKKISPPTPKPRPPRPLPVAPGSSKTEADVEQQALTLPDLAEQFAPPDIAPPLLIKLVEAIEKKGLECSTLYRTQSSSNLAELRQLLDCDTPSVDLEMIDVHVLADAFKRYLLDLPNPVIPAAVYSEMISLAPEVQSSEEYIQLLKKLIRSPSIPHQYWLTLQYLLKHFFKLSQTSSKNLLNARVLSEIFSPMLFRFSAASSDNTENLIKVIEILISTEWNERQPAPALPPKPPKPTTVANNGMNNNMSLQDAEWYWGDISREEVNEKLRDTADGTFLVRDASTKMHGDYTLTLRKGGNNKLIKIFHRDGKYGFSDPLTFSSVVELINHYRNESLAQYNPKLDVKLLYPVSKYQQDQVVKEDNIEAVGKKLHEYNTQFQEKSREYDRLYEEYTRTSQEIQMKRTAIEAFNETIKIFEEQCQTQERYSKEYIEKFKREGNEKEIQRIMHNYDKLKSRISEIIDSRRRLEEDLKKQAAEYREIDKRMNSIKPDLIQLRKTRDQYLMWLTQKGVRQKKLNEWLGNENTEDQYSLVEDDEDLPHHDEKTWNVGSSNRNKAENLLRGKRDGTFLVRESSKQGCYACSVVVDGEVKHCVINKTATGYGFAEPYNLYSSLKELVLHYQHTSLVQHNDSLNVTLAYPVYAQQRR
Measured Endpoint: IC50 (nM)
Write it as a number; the unit nM goes unstated.

Incoming: Any idea what its IC50 is? The molecule is C=CS(=O)(=O)N1CCN(c2nc(N3CCOCC3)nc(-n3c(C(F)F)nc4c(OC)cccc43)n2)CC1
Outgoing: 55

###

Readings of remaining activity at 1 µM for the listed compounds
- Study Target: panel of 442 kinases (Homo sapiens)
- Construct: purchased Ambit Biosciences (scanMAXX KINOMEscan)
- Test: biochemical
- Format: binding
- Conditions Used: kinase PRKCI; 1 µM; read-out: PRKCI (% of control at 1 µM)
Just the number please, in %, no unit attached.

Previously resolved entries follow.
| Compound Smiles | Observed Result |
| --- | --- |
| COc1ncc(-c2ccc3nccc(-c4ccnnc4)c3c2)cc1NS(=O)(=O)c1ccc(F)cc1F | 100 |
| Cn1c(=O)n(-c2ccc(C(C)(C)C#N)cc2)c2c3cc(-c4cnc5ccccc5c4)ccc3ncc21 | 86 |
| Nc1cc(C(F)(F)F)c(-c2cc(N3CCOCC3)nc(N3CCOCC3)n2)cn1 | 90 |

Continue with the compound presented below.
Incoming: Test system panel of 442 kinases (Homo sapiens); read-out remaining activity at 1 µM; what value for FC(F)c1nc2ccccc2n1-c1nc(N2CCOCC2)nc(N2CCOCC2)n1 ?
Outgoing: 100

###

- Study Target: panel of 442 kinases (Homo sapiens)
- Construct: purchased Ambit Biosciences (scanMAXX KINOMEscan)
- Test: biochemical
- Format: binding
- Conditions Used: kinase MST2; 1 µM; read-out: % of control at 1 µM
Here the recorded remaining activity at 1 µM is given for each entry.
Quick note: give the figure in %, leave out the unit.

Look over these answered cases.
| Compound Smiles | Observed Result |
| --- | --- |
| COc1ncc(-c2ccc3nccc(-c4ccnnc4)c3c2)cc1NS(=O)(=O)c1ccc(F)cc1F | 53 |
| Cn1c(=O)n(-c2ccc(C(C)(C)C#N)cc2)c2c3cc(-c4cnc5ccccc5c4)ccc3ncc21 | 43 |
| FC(F)c1nc2ccccc2n1-c1nc(N2CCOCC2)nc(N2CCOCC2)n1 | 76 |

Would you kindly look at the next entry?
Incoming: Can you share its remaining activity at 1 µM? I mean this compound: Nc1cc(C(F)(F)F)c(-c2cc(N3CCOCC3)nc(N3CCOCC3)n2)cn1
Outgoing: 89

###

- Study Target: panel of 442 kinases (Homo sapiens, UniProt Q16513)
- Construct: purchased Ambit Biosciences (scanMAXX KINOMEscan)
- Sequence (Q16513 whole entry): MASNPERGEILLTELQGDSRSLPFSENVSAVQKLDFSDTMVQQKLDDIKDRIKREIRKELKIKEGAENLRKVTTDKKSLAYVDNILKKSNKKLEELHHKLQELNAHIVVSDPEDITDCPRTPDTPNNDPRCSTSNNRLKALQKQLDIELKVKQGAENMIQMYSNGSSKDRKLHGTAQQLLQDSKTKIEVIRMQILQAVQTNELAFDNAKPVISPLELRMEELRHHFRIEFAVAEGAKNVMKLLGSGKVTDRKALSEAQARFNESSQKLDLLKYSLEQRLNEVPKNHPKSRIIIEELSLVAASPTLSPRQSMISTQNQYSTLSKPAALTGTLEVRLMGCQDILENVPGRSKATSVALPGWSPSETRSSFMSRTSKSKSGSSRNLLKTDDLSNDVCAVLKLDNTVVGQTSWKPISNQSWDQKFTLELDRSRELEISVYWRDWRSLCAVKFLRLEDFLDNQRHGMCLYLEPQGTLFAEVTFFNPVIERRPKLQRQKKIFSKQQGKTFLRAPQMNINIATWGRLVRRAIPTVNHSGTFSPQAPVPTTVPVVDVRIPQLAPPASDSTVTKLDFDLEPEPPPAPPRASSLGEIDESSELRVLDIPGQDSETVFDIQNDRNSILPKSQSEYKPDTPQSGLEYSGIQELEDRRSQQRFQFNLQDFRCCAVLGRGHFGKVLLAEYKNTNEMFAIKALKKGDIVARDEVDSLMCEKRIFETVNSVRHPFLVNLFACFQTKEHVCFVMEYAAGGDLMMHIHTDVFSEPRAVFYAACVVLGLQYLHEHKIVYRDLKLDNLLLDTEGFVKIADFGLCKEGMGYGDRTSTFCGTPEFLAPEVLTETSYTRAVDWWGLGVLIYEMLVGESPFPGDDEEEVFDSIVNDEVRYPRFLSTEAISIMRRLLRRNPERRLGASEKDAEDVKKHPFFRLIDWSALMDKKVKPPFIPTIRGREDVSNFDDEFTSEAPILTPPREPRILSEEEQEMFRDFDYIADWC
- Test: biochemical
- Type: binding
- Conditions Used: kinase PKN2; 1 µM; read-out: PKN2 (% of control at 1 µM)
Measured remaining activity at 1 µM values are reported for all entries that follow.
# value in %; strip the unit string

| Compound Smiles | remaining activity at 1 µM (%) |
| --- | --- |
| COc1ncc(-c2ccc3nccc(-c4ccnnc4)c3c2)cc1NS(=O)(=O)c1ccc(F)cc1F | 100 |
| FC(F)c1nc2ccccc2n1-c1nc(N2CCOCC2)nc(N2CCOCC2)n1 | 100 |
| Cn1c(=O)n(-c2ccc(C(C)(C)C#N)cc2)c2c3cc(-c4cnc5ccccc5c4)ccc3ncc21 | 92 |

# next compound below
Incoming: What does the record list as remaining activity at 1 µM for Nc1cc(C(F)(F)F)c(-c2cc(N3CCOCC3)nc(N3CCOCC3)n2)cn1 ?
Outgoing: 83

###

- Study Target: panel of 442 kinases (Homo sapiens, UniProt P36888, N841I)
- Construct: purchased Ambit Biosciences (scanMAXX KINOMEscan)
- Test: biochemical
- Assay type: binding
- Conditions Used: kinase FLT3(N841I); 1 µM; read-out: % of control at 1 µM
Measured Endpoint: remaining activity at 1 µM
Reply with the number, then its unit.

Look over these answered cases.
| Compound Smiles | remaining activity at 1 µM |
| --- | --- |
| FC(F)c1nc2ccccc2n1-c1nc(N2CCOCC2)nc(N2CCOCC2)n1 | 90% |
| Nc1cc(C(F)(F)F)c(-c2cc(N3CCOCC3)nc(N3CCOCC3)n2)cn1 | 86% |
| Cn1c(=O)n(-c2ccc(C(C)(C)C#N)cc2)c2c3cc(-c4cnc5ccccc5c4)ccc3ncc21 | 24% |

Incoming: API: value(readout= remaining activity at 1 µM, system= panel of 442 kinases (Homo sapiens, UniProt P36888, N841I), query= COc1ncc(-c2ccc3nccc(-c4ccnnc4)c3c2)cc1NS(=O)(=O)c1ccc(F)cc1F )
Outgoing: 70%

###

// mTOR (Homo sapiens, UniProt P42345) pIC50 records
Formally, pIC50 is defined as -log10 of the concentration c, with c in mol/L.

// below: answered compounds
| Compound Smiles | pIC50 |
| --- | --- |
| FC(F)c1nc2ccccc2n1-c1nc(N2CCOCC2)nc(N2CCOCC2)n1 | 6.99 |
| COc1cccc2c1nc(C(F)F)n2-c1nc(N2CCOCC2)nc(N2CCN(S(=O)(=O)CCN(C)C)CC2)n1 | 6.71 |
| CNCCS(=O)(=O)N1CCN(c2nc(N3CCOCC3)nc(-n3c(C(F)F)nc4c(OC)cccc43)n2)CC1 | 6.61 |

Incoming: May I ask what pIC50 has been recorded for C=CS(=O)(=O)N1CCN(c2nc(N3CCOCC3)nc(-n3c(C(F)F)nc4c(OC)cccc43)n2)CC1 ?
Outgoing: 7.13

###

- Study Target: panel of 442 kinases (Homo sapiens, UniProt P51451)
- Construct: purchased Ambit Biosciences (scanMAXX KINOMEscan)
- Sequence (P51451 whole entry): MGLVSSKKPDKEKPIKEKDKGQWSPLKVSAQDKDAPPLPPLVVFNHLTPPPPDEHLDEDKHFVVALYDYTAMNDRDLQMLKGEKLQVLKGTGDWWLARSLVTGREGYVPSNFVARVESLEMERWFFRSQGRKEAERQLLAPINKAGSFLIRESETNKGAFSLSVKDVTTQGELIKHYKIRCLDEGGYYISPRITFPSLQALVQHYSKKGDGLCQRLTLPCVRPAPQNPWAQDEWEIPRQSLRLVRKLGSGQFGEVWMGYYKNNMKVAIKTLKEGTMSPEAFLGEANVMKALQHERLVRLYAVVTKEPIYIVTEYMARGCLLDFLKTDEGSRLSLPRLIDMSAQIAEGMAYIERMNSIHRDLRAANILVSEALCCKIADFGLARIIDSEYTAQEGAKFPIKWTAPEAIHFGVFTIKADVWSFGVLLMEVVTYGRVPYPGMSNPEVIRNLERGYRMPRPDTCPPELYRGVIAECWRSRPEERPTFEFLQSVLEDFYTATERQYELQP
- Test: biochemical
- Type: binding
- Conditions Used: BLK; 1 µM; read-out: % of control at 1 µM
Entries and their measured remaining activity at 1 µM follow.
Entry rule: numbers only, all in %.

| Compound | Measured Endpoint | Observed Result |
| --- | --- | --- |
| FC(F)c1nc2ccccc2n1-c1nc(N2CCOCC2)nc(N2CCOCC2)n1 [ZSTK474] | remaining activity at 1 µM | 100 |
| Cn1c(=O)n(-c2ccc(C(C)(C)C#N)cc2)c2c3cc(-c4cnc5ccccc5c4)ccc3ncc21 [Dactolisib] | remaining activity at 1 µM | 97 |
| Nc1cc(C(F)(F)F)c(-c2cc(N3CCOCC3)nc(N3CCOCC3)n2)cn1 [Buparlisib] | remaining activity at 1 µM | 93 |

In the following, a different compound is considered.
Incoming: # value lookup — system panel of 442 kinases (Homo sapiens, UniProt P51451), readout remaining activity at 1 µM, item COc1ncc(-c2ccc3nccc(-c4ccnnc4)c3c2)cc1NS(=O)(=O)c1ccc(F)cc1F [Omipalisib]
Outgoing: 94
